FYI, the data here is from PubChem BioAssay (NCI).

Item-by-item account of TGI
tested on: CAKI-1 renal; experiment: NCI tumour cell line growth inhibition, 48 h
endpointName: TGI

compound="Cc1ccc(NC(=O)/C(=N\\NC(N)=S)C(C#N)c2ccccc2C)cc1C (centres undefined)" endpointname=TGI assayvalue="> 100 µM"
compound=CCC(C)(C)[C@H](NC(=O)[C@H]1CCCCN1C)C(=O)N(C)[C@H](C[C@@H](OC(C)=O)c1nc(C(=O)N[C@@H](Cc2ccccc2)C[C@H](C)C(=O)O)cs1)C(C)C endpointname=TGI assayvalue="> 16.7 µM"
compound=COc1cc2c3c(n(CCCN4CCCNCC4)c(=O)c2cc1OC)-c1cc2c(cc1C3=O)OCO2 endpointname=TGI assayvalue="1.65 µM"
compound=Cn1c(=O)c2[nH]c(CCCc3ccc([N+](=O)[O-])cc3)nc2n(C)c1=O endpointname=TGI assayvalue="> 100 µM"

###

Entries and their measured TGI follow.
tested on: EKVX NSCLC; assay: NCI tumour cell line growth inhibition, 48 h
endpointName: TGI

molecule="CC1CCC2CC1NC(=O)CCOCCC(=O)NC2(C)C (centres undefined)" endpointname=TGI assayvalue="> 100 µM"
molecule="O=C1NC(=O)C2C1C1C=C3c4ccccc4N(c4ccccc4)C32[C@H]2C(=O)NC(=O)[C@@H]12 (some centres undefined)" endpointname=TGI assayvalue="> 100 µM"
molecule="CCC(c1ccc(OC)cc1)C1NC(=S)NC1=O (centres undefined)" endpointname=TGI assayvalue="> 50 µM"
molecule=O=C1c2cccnc2C(=O)c2c1c(C(=O)OCCc1ccccn1)c1ccccn21 endpointname=TGI assayvalue="3.81 µM"
molecule=O=C(NCCc1ccccc1)c1cc(/C=C/c2cc(O)ccc2O)ccc1O endpointname=TGI assayvalue="8.24 µM"
molecule=O=C(c1cccs1)c1nc2cc(Cl)ccc2[n+]([O-])c1C(F)(F)F endpointname=TGI assayvalue="> 100 µM"
molecule="COc1cc(/C=C/C(=O)c2ccc(F)cc2)ccc1OCCCCCOc1cc2c(cc1OC)C(=O)N1CCCC1C=N2 (centres undefined)" endpointname=TGI assayvalue="0.601 µM"
molecule=CCCCCCCCCC/C=C/C=O endpointname=TGI assayvalue="> 100 µM"
molecule=O=C(Oc1c(Br)cc(Br)cc1C(=O)Oc1ccccc1)C(=O)Oc1c(Br)cc(Br)cc1C(=O)Oc1ccccc1 endpointname=TGI assayvalue="> 100 µM"
molecule=CC(=O)O[C@H]1CC[C@@]2(C)C(=CC[C@@H]3[C@@H]2CC[C@](C)(c2nnc(C)o2)[C@H]3CC#N)C1 endpointname=TGI assayvalue="> 100 µM"
molecule=COc1cc2c3c(n(CCCN4CCCNCC4)c(=O)c2cc1OC)-c1cc2c(cc1C3=O)OCO2 endpointname=TGI assayvalue="15.5 µM"
molecule=O=C(NS(=O)(=O)c1ccc(NC[C@H]2COCCO2)c([N+](=O)[O-])c1)c1ccc(N2CCN(CC3=C(c4ccc(Cl)cc4)CC4(CCC4)CC3)CC2)cc1Oc1cnc2[nH]ccc2c1 endpointname=TGI assayvalue="9.12 µM"
molecule="O=C(Cc1ccccc1)NN1C(=O)C(Cl)C1c1cccc([N+](=O)[O-])c1 (centres undefined)" endpointname=TGI assayvalue="> 100 µM"
molecule=O=C([O-])CCc1ccccc1.O=C([O-])CCc1ccccc1.O=C([O-])CCc1ccccc1.O=C([O-])CCc1ccccc1.[Mo+2].[Mo+2] endpointname=TGI assayvalue="> 100 µM"
molecule="CSC1=C(C#N)C(=O)N(c2ccc(C)cc2)C(=O)C1C#N (centres undefined)" endpointname=TGI assayvalue="> 100 µM"
molecule=Cn1c(=O)c2[nH]c(CCCc3ccc([N+](=O)[O-])cc3)nc2n(C)c1=O endpointname=TGI assayvalue="> 100 µM"
molecule=CN1c2ccccc2C(=O)NC12CCNCC2 endpointname=TGI assayvalue="> 100 µM"
molecule="O=C(/C=C/c1ccc(O)c(O)c1)NC(COC(=O)/C=C/c1ccc(O)c(O)c1)C(=O)O (centres undefined)" endpointname=TGI assayvalue="> 100 µM"
molecule="N#CC(/C(=N/NC(N)=S)C(=O)Nc1cccc(Cl)c1)c1ccccc1 (centres undefined)" endpointname=TGI assayvalue="> 100 µM"

###

Here, each record is paired with measured log10 of TGI data.
test system: HS 578T breast; test: NCI tumour cell line growth inhibition, 48 h
endpointName: log10 of TGI (log10 of the value in µM)

compound=O=C1/C(=C/c2ccc(Cl)cc2)N=C(c2ccccc2)N1/N=C/c1ccccc1O assayvalue=1.97
compound=CCCOc1ccc(/C=N/Nc2cc(C)nc3ccc(Cl)cc23)cc1 assayvalue=0.67
compound=O=[N+]([O-])/C=C/c1cc2ccc3ccccc3c2[nH]1 assayvalue=1.35
compound=COc1cc2c3c(n(CCCN4CCCNCC4)c(=O)c2cc1OC)-c1cc2c(cc1C3=O)OCO2 assayvalue=1.15
compound=COc1ccc2c(c1)-c1nc(=O)n(CCCN(C)C)c3ccc([N+](=O)[O-])c(c13)N2 assayvalue=0.70
compound="CC(=O)OCC1OC(OC(C)=O)C(Nc2ncc(-c3ccc(C)cc3)s2)C(OC(C)=O)C1OC(C)=O (stereo not given)" assayvalue=1.84
compound=O=C1c2cccnc2C(=O)c2c1c(C(=O)OCCc1ccccn1)c1ccccn21 assayvalue=0.51
compound=C(=N\NC1=NCCN1)/c1cccc2cc3ccncc3nc12 assayvalue=1.79
compound="Cc1cc(C(O)(c2ccc(Nc3ccccc3)cc2)c2ccc(Nc3ccc(S(=O)(=O)O)cc3)cc2)ccc1N (stereo not given)" assayvalue=0.74
compound=Brc1ccc(Nc2nc3ccccc3nc2Nc2ccc(Br)cc2)cc1 assayvalue=0.96
compound="COc1ccc(C2CC(c3ccc4ccccc4c3)=NN2c2nc(O)c(C3=c4cc(OC)ccc4=NC3=O)s2)cc1 (stereo not given)" assayvalue=-0.21
compound=O=C1/C(=C\c2ccccc2)CN(C(=O)c2ccccc2)C/C1=C\c1ccccc1 assayvalue=0.86
compound=C/C(=N/NC(=S)N1CC2CCC(CC2)C1)c1cnccn1 assayvalue=1.06
compound="CCN(CC)CC(O)COc1c(Br)c(Br)c(Br)c2c1OC(C)(C)C2 (stereo not given)" assayvalue=1.28
compound=NCCCNc1nc2ccc(Cl)cc2c2c(=O)c3cc(F)ccc3sc12 assayvalue=1.25
compound="COC(=O)c1ccc(C)cc1C1CN=NC12Cc1cc(C)ccc1C2=O (stereo not given)" assayvalue=1.62
compound="CCCNCC(O)CNc1ccc(NCC(O)CNCCC)c2c1C(=O)c1ccccc1C2=O (stereo not given)" assayvalue=1.22
compound=Cc1cc(C)c(S(=O)(=O)N(CCCN)OCCON(CCCN)S(=O)(=O)c2c(C)cc(C)cc2C)c(C)c1 assayvalue=1.48
compound=O=C(Cc1ccc(Nc2ccnc(C(F)(F)F)c2)cc1)N/N=C/c1ccccc1O assayvalue=1.46

###

test system: BT-549 breast; experiment: NCI tumour cell line growth inhibition, 48 h
Below: a set of entries, each annotated with reported TGI.
endpointName: TGI (µM)

compound=N#C/C(=C\c1ccc(F)cc1)n1nc2cccc(F)c2n1 testedsystem="BT-549 breast" relation=> assayvalue=100
compound=CC(=O)O[C@H]1CC[C@@]2(C)C(=CC[C@@H]3[C@@H]2CC[C@](C)(c2nnc(C)o2)[C@H]3CC#N)C1 testedsystem="BT-549 breast" relation=> assayvalue=100
compound="CCN(CC)CC(O)COc1c(Br)c(Br)c(Br)c2c1OC(C)(C)C2 (centres undefined)" testedsystem="BT-549 breast" relation== assayvalue=17.6
compound=NC(=N\N=C/c1ccc(Cl)cc1Cl)/C(N)=N\N=C/c1ccc(Cl)cc1Cl testedsystem="BT-549 breast" relation=> assayvalue=93.2
compound=CCCCN(CC)CCCCCCCCCCN1CCCc2cc(OC)ccc21 testedsystem="BT-549 breast" relation== assayvalue=12.5
compound=O=C1CCSc2nc(-c3ccc4c(c3)OCO4)nn21 testedsystem="BT-549 breast" relation=> assayvalue=10
compound="O=C1CC(C(OCc2ccccc2)C(OCc2ccccc2)C(OCc2ccccc2)C(COCc2ccccc2)OCc2ccccc2)CC(=O)N1 (centres undefined)" testedsystem="BT-549 breast" relation=> assayvalue=100
compound="COCC12CCC(OC)C34C5CC6(O)C(OC)C=C(C5C6OC(=O)c5ccccc5)C(C(OC)C13)C4N(C)C2 (centres undefined)" testedsystem="BT-549 breast" relation=> assayvalue=100
compound=C(=N\NC1=NCCN1)/c1cccc2cc3ccncc3nc12 testedsystem="BT-549 breast" relation== assayvalue=29.4
compound=COc1ccc(/C=C/C(=O)c2ccc(Nc3nc(Nc4ccc(F)cc4)nc(Nc4ccc(Cl)cc4)n3)cc2)cc1 testedsystem="BT-549 breast" relation=> assayvalue=100
compound=FC(F)(F)c1ccc(-c2ncc(-c3ccc(C(F)(F)F)cc3)c(NCc3cc(C(F)(F)F)cc(C(F)(F)F)c3)n2)cc1 testedsystem="BT-549 breast" relation=> assayvalue=100
compound=Cc1cc(C)c(S(=O)(=O)N(CCCN)OCCON(CCCN)S(=O)(=O)c2c(C)cc(C)cc2C)c(C)c1 testedsystem="BT-549 breast" relation== assayvalue=66.2
compound=O=C(Nc1ccc(I)cc1)c1cccc([N+](=O)[O-])c1O testedsystem="BT-549 breast" relation== assayvalue=19
compound=COC(=O)[C@@H](OC(C)=O)[C@@H](OC(C)=O)c1nnc2ccc(Cl)nn12 testedsystem="BT-549 breast" relation=> assayvalue=100
compound="COc1cc(/C=C/C(=O)c2ccc(F)cc2)ccc1OCCCCCOc1cc2c(cc1OC)C(=O)N1CCCC1C=N2 (centres undefined)" testedsystem="BT-549 breast" relation== assayvalue=0.0974
compound=C#C[C@]1(O)[C@@H](CO)O[C@@H](n2ccc(N)nc2=O)[C@@H]1O testedsystem="BT-549 breast" relation== assayvalue=22.2
compound="Fc1cccc(C2SCc3nc4cc5ccccc5cc4n32)c1 (centres undefined)" testedsystem="BT-549 breast" relation=> assayvalue=100
compound=COC(=O)[C@]1(C)CCC[C@]2(C)[C@@H](CCC(=O)C(C)C)[C@]3(C=O)O[C@@H]3C[C@H]21 testedsystem="BT-549 breast" relation== assayvalue=77.3
compound="CCCCCCCC(CC(=O)NC(CO)C(=O)NC(CO)CC(C)C)OC(=O)CC(CCCCCCC)OC(=O)CC(CCCCCCC)OC1OC(C)C(O)C(OC2OC(C)C(O)C(O)C2O)C1O (centres undefined)" testedsystem="BT-549 breast" relation== assayvalue=28.8
compound="CCC(C)CC(C)C(=O)c1c(O)ccn(O)c1=O (centres undefined)" testedsystem="BT-549 breast" relation== assayvalue=37.9
compound="CC1CCC2CC1NC(=O)CCOCCC(=O)NC2(C)C (centres undefined)" testedsystem="BT-549 breast" relation=> assayvalue=100
compound=C=C(CCC/C(C)=C/C=C/[C@H](C)CCCc1ccoc1)C[C@@H]1OC(=O)[C@H](C)[C@@H]1O testedsystem="BT-549 breast" relation== assayvalue=16.9
compound="CCCNCC(O)CNc1ccc(NCC(O)CNCCC)c2c1C(=O)c1ccccc1C2=O (centres undefined)" testedsystem="BT-549 breast" relation== assayvalue=6.99
compound=CCOC(=O)[C@@H](C)C[C@H](Cc1ccccc1)NC(=O)c1csc([C@@H](C[C@H](C(C)C)N(C)C(=O)[C@@H](NC(=O)[C@H]2C[C@H](O)CCN2C)C(C)C)OC(C)=O)n1 testedsystem="BT-549 breast" relation== assayvalue=0.0915
compound=O=C1CCCC2=C1CC1=C(CCCC1=O)N2c1ccc([N+](=O)[O-])cc1 testedsystem="BT-549 breast" relation=> assayvalue=100
compound=Cc1[nH]c2nc3c(ncn3COCCO)c(=O)n2c1C(c1ccccc1)(c1ccccc1)c1ccccc1 testedsystem="BT-549 breast" relation== assayvalue=2.22
compound=CC[C@@H]1CC[C@@H]2[C@H](CC[C@]3(C)[C@@H](OC(C)=O)CC[C@@H]23)[C@H]1C(=O)OC testedsystem="BT-549 breast" relation=> assayvalue=100
compound="COc1ccc(C2CC(c3ccc4ccccc4c3)=NN2c2nc(O)c(C3=c4cc(OC)ccc4=NC3=O)s2)cc1 (centres undefined)" testedsystem="BT-549 breast" relation== assayvalue=17.5
compound="CSC1=C(C#N)C(=O)N(c2ccc(C)cc2)C(=O)C1C#N (centres undefined)" testedsystem="BT-549 breast" relation=> assayvalue=100
compound=O=C(c1cccs1)c1nc2cc(Cl)ccc2[n+]([O-])c1C(F)(F)F testedsystem="BT-549 breast" relation=> assayvalue=100
compound=C/C(=N/NC(=S)N1CC2CCC(CC2)C1)c1cnccn1 testedsystem="BT-549 breast" relation== assayvalue=16.7
compound=COc1cc2c(cc1O)Cc1c-2[n+](C)cc2cc(OC)c(OC)cc12 testedsystem="BT-549 breast" relation=> assayvalue=57.9
compound=O=C(Cc1ccc(Nc2ccnc(C(F)(F)F)c2)cc1)N/N=C/c1ccccc1O testedsystem="BT-549 breast" relation=> assayvalue=39.2
compound=CCOC(=O)Nc1ccc2c(c1)N(C(=O)CCN(CC)CC)c1ccccc1S2 testedsystem="BT-549 breast" relation== assayvalue=97.2
compound=O=C(O)c1ccc(Oc2nc3ccccc3s2)cc1 testedsystem="BT-549 breast" relation=> assayvalue=100
compound="CCOC(=O)C1=CNC(C(=O)OCC)C1c1cccn1-c1ccccc1 (centres undefined)" testedsystem="BT-549 breast" relation=> assayvalue=100
compound=Cn1nc(-c2ccccc2)c2c(-c3ccccc3)c3cc(Cl)ccc3nc21 testedsystem="BT-549 breast" relation=> assayvalue=100
compound=CCOc1cc(/C=C/C(=O)C(C(=O)/C=C/c2ccc(OC(=O)CNc3nnc(C)s3)c(OCC)c2)C(=O)CNc2nnc(C)s2)ccc1OC(=O)CNc1nnc(C)s1 testedsystem="BT-549 breast" relation== assayvalue=5.33
compound="CCN1C(=O)N(CC)C2C1NC(=S)N2/N=C/C=C/c1ccccc1OC (centres undefined)" testedsystem="BT-549 breast" relation== assayvalue=38.2
